The measurements presented in this section are drawn from PubChem BioAssay.

assay: inhibitors of TNFa-induced NFkB p65 translocation, primary screen, imaging, HUVEC, MLSMR starter and 10KST1 sets (AID 438); conditions: HUVEC TNFa-induced p65 nuclear translocation; at 2 µM, active compounds read high, 0% TNFa-plus-vehicle, 100% no-TNFa wells;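 note: compound added about 3h40 before a 20 min TNFalpha stimulation; signal is the nuclear over cytoplasmic p65 intensity ratio per well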
Where a SMILES comes first, the peptide text is derived from it. The star is where a group is joined. Boc = CC(C)(C)OC(=O)*
endpoint: inhibition (%)
All answers are understood in %, so give the number only.

Illustrative cases are given below, each with its answer.
| molecule | endpoint | observed |
| --- | --- | --- |
| O=C1C(C=NCCCn2ccnc2)=C(O)c2ccccc21 | inhibition | 5.8 |
| O=C(CN1c2cccc3cccc(c23)S1(=O)=O)N1CCOCC1 | inhibition | -5.5 |
| CCOC(=O)C1CCCN(C/C(O)=C(\C#N)c2nc(-c3ccc(Cl)cc3)cs2)C1 (stereo not given) | inhibition | 1 |
| CC(C)CC(NC(=O)OC(C)(C)C)C(=O)NC(C(=O)N1CCCC1C(N)=O)C(C)C (stereo not drawn) (Boc-Leu-Val-Pro-NH2; configuration not given here) | inhibition | 8.7 |

Please turn your attention to the following entry.
Suppose we examine the molecule Cc1ccc(C)c(NC(=O)CSc2nnc(-c3ccccc3)o2)c1 ; what inhibition value has been reported?
-6

---

Below, each entry is listed alongside its reported inhibition.
assay: endothelial E-selectin expression blockers – imaging, HUVEC, immunofluorescence, MLSMR starter and 10KST1 sets, primary screen (AID 487); details: HUVEC TNFalpha-induced E-selectin immunofluorescence imaging, at 2 µM; active compounds read high;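 note: signal is fraction of cell area covered by stained E-selectin grains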
All answers are understood in %, so give the number only.

Suppose we examine the molecule O=S(=O)(NC1CCCCC1NS(=O)(=O)c1ccc(F)cc1)c1ccc(F)cc1 (configuration not stated) ; what inhibition value has been reported?
5.1

---

target: Voltage-gated potassium channel subunit beta-2 (Rattus norvegicus) (UniProt P62483); assay: inhibitors of rat Kvbeta2 reductase activity – biochemical, NADPH fluorescence, primary screen (AID 622); conditions: recombinant KvBeta, 4-cyanobenzaldehyde reduction, at 10 µM, active compounds read high;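 note: slope of raw intensity against log time taken from 70 to 1610 s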
Sequence (P62483 whole entry, looked up): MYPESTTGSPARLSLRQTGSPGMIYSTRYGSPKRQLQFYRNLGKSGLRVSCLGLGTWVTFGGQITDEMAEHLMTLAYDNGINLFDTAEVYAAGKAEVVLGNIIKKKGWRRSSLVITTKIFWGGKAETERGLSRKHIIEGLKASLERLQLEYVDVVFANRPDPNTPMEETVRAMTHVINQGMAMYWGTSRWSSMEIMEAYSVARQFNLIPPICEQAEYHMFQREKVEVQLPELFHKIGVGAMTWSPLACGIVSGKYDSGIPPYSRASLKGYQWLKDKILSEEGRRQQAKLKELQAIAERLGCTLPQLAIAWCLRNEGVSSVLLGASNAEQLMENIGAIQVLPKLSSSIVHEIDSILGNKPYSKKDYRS
Output: class label from fluorescence slope. Mapping: lower level = under -0.5, middle level = from -0.5 up to -0.4, upper level = -0.4 and over

Kindly state the category for this molecule: N#CC1=C(N)OC(c2ccccc2)=C(C#N)C1c1ccc2c(c1)OCO2 (centres undefined)
middle level

Okay, and CCCn1c(N)c(C(=O)CSc2nnc(Cc3ccccc3)o2)c(=O)n(C)c1=O ?
lower level

---

biological target: Voltage-gated potassium channel subunit beta-2 (Rattus norvegicus) (UniProt P62483); assay: inhibitors of rat Kvbeta2 reductase activity – biochemical, NADPH fluorescence, primary screen (AID 622); conditions: recombinant KvBeta, 4-cyanobenzaldehyde reduction, at 10 µM, active compounds read high;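 note: slope of raw intensity against log time taken from 70 to 1610 s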
Below, each entry is listed alongside its reported fluorescence slope.
Reply briefly: the number, and no unit.

Illustrative cases are given below, each with its answer.
| compound | test target | observed |
| --- | --- | --- |
| CCOc1ccc(NC(=O)CSc2nnc(Cc3cccn3C)n2-c2ccc(OC)cc2)cc1 | Voltage-gated potassium channel subunit beta-2 (Rattus norvegicus) (UniProt P62483) | -0.489 |
| CC(=O)NCC(=O)N(Cc1ccco1)C1(C(=O)NC2CCCCC2)CCCCC1 | Voltage-gated potassium channel subunit beta-2 (Rattus norvegicus) (UniProt P62483) | -0.538 |
| CC(=O)Nc1cccc(OCC(O)Cn2cnc3ccccc32)c1 (stereo not given) | Voltage-gated potassium channel subunit beta-2 (Rattus norvegicus) (UniProt P62483) | -0.674 |

Suppose we examine the compound COc1ccc(NC(=O)CN2CCN(CC(=O)Nc3cc(OC)cc(OC)c3)CC2)cc1 ; what fluorescence slope value has been reported?
-0.442

Okay, and Cc1cnc(C(=O)OCC(=O)Nc2ccc(Oc3ccccc3)cc2)cn1 ?
-0.367
